Test system: E. coli EURL‐VTEC C07 STEC:O157
Assay type: cell-based, Escherichia coli
Applied conditions: EURL‐VTEC C07 STEC:O157, 18 h
Ends that are not written are not given here.
Observable: MIC (µM)
Supply the numeric figure in µM, leaving out any unit text.

[in] Query: MIC; subject: RWRWPIRRPPIRPPFYR [compound 278]
[out] 8

[in] Same read-out for RFRWPIRRPPIRPPFYR [compound 272] ?
[out] 8

[in] Param item: RWRRPIRRRPIRPPFWR [compound 291]
[out] 2

[in] Another: RWRRPIRRRPIRPPFYW [compound 281]
[out] 2

----------
Tested on: E. coli BW25113
Type: cell-based, Escherichia coli
Applied conditions: BW25113, 18 h
Ends that are not written are not given here.
Assignment: determine reported MIC for the given substances.
Just the number in µM, nothing appended.

[in] So what's the measured MIC for this one? RFRPPIWRPPIRPPFYPG-NH2 [R7W]
[out] 64

[in] Can you handle RFRPPIRRPPIRRPFYPG-NH2 [P13R] next?
[out] 64

[in] What would you report for RFRPPIRRPWIRPPFYPG-NH2 [P10W] ?
[out] 32

[in] Now give it for RFRPAIRRPPIRPPFYPG-NH2 (C-terminus assumed) [P5A] too.
[out] 64

[in] Same for RPRPPIRRPPIRPPFYPG-NH2 (C-terminus assumed) [F2P]
[out] 64

[in] Follow-up entry: RWRRPIRRRPIRPPFWR [compound 291]
[out] 2

[in] Note, next up: RFRPPIRRPPIRPPRYPG-NH2 (C-terminus assumed) [F15R]
[out] 32

[in] And for GFRPPIRRPPIRPPFYPG-NH2 [R1G] ?
[out] 32

[in] Note, next up: RFRPPIFRPPIRPPFYPG-NH2 [R7F]
[out] 32

[in] One more substance: RFFPPIRRPPIRPPFYPG-NH2 [R3F]
[out] 64

[in] How about this substance: RFRPPIRRPPIRPPFYAG-NH2 [P17A]
[out] 16

[in] Would you kindly repeat that for RFRPPIRRFPIRPPFYPG-NH2 (C-terminus assumed) [P9F] ?
[out] 16

[in] Same question, RFRPRIRRPPIRPPFYPG-NH2 (C-terminus assumed) [P5R] this time
[out] 16

[in] For RFRPPIRRPPIRPPGYPG-NH2 (C-terminus assumed) [F15G] then?
[out] 32

[in] Try this substance next: RFRPPARRPPIRPPFYPG-NH2 (C-terminus assumed) [I6A]
[out] 64

[in] What about this substance? RFGPPIRRPPIRPPFYPG-NH2 [R3G]
[out] 64

[in] RARPPIRRPPIRPPFYPG-NH2 (C-terminus assumed) [F2A] , same question.
[out] 32

[in] Here is the next substance: RFWPPIRRPPIRPPFYPG-NH2 [R3W]
[out] 32

[in] // next record RFRPPIRRPPIRPPAYPG-NH2 (C-terminus assumed) [F15A]
[out] 64

[in] Also RFRPPIRRPPIRPPFYSG-NH2 [P17S] ?
[out] 16

[in] # iterate: RFRPPIRRPPIRPPFYR [compound 258]
[out] 8

[in] Then this substance: RFRPPIRWPPIRPPFYPG-NH2 [R8W]
[out] 32

[in] RFRPPIRRRPIRPPFYPG-NH2 (C-terminus assumed) [P9R] ?
[out] 8

[in] Try RFRRPIRRPPIRPPFYPG-NH2 (C-terminus assumed) [P4R] next.
[out] 4

[in] Repeat with RWRRPIRRRPIRPPFWRG-NH2 [291 (SPOT form)]
[out] 4

[in] Next substance up: RFRPPIRRPPIRPFFYPG-NH2 [P14F]
[out] 32

[in] And then RFRPWIRRPPIRPPFYPG-NH2 (C-terminus assumed) [P5W] , what is it?
[out] 16

[in] What do you have for RWRWPIRRPPIRPPFYR [compound 278] ?
[out] 2

[in] RFRWPIRRPPIRPPFYRG-NH2 [272 (SPOT form)] ?
[out] 4

[in] // same read-out, input: RFREPIRRPPIRPPFYPG-NH2 (C-terminus assumed) [P4E]
[out] 64

[in] Next up: RFRPFIRRPPIRPPFYPG-NH2 (C-terminus assumed) [P5F]
[out] 32
